subjectOfTest: recombinant 15-PGDH (Homo sapiens)
Sequence (P15428 whole entry): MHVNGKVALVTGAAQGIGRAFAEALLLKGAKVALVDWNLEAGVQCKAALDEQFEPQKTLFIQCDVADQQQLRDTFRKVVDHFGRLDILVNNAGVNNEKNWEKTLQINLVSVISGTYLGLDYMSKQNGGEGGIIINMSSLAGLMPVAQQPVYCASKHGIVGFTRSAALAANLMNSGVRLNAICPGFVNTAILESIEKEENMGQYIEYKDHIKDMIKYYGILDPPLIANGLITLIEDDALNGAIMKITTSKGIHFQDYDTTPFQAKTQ
protocolDetails: IC50 for inhibiting enzymatic activity of recombinant 15-PGDH in an in vitro assay
Format: biochemical
assayConditions: Enzyme Inhibitor IC50 (nM) at 5 nM 15-PGDH, recombinant human 15-PGDH at 5 nM, in vitro
Measured IC50 of individual entries

{"molecule": "Nc1c([S+]([O-])C2CCCCC2)sc2nc(-c3cccs3)cc(-c3ccccc3)c12 (centres unmarked) [SW 218520]", "unit": "nM", "IC50": 3.3}
{"molecule": "Nc1c([S+]([O-])c2ccccc2)sc2nc(-c3nccs3)cc(-c3ccc(OCCO)cc3)c12 (centres unmarked) [SW 217997]", "unit": "nM", "IC50": 12}
{"molecule": "CCCC[S+]([O-])c1sc2nc(-c3nccs3)cc(-c3cnc(C)n3C3CC3)c2c1N (centres unmarked) [SW 218478]", "unit": "nM", "IC50": 2.4}
{"molecule": "CCCC[S+]([O-])c1sc2nc(-c3nccs3)cc(-c3ccc(C(=O)NCCO)cc3)c2c1N (centres unmarked) [SW 212831]", "unit": "nM", "IC50": 4}
{"molecule": "CCCC[S+]([O-])c1sc2nc(-c3nccs3)cc(-c3cncn3C)c2c1N (centres unmarked) [SW 217781]", "unit": "nM", "IC50": 1.9}
{"molecule": "CCCC[S+]([O-])c1sc2nc(-c3cccs3)cc(-c3ccccc3)c2c1O (centres unmarked) [SW 218399]", "unit": "nM", "IC50": 135}
{"molecule": "CCCC[S+]([O-])c1sc2nc(-c3nccs3)cc(-c3ccc(COC(=O)NCCN(C)C)cc3)c2c1N (centres unmarked) [SW 212834]", "unit": "nM", "IC50": 3.3}
{"molecule": "CCOC[S+]([O-])c1sc2nc(-c3nccs3)cc(-c3cnc(C)n3C)c2c1N (centres unmarked) [SW 218398]", "unit": "nM", "IC50": 9.1}

* * *

subjectOfTest: recombinant 15-PGDH (Homo sapiens)
protocolDetails: IC50 for inhibiting enzymatic activity of recombinant 15-PGDH in an in vitro assay
Format: biochemical
assayConditions: Enzyme Inhibitor IC50 (nM) at 5 nM 15-PGDH, recombinant human 15-PGDH at 5 nM, in vitro
Measured IC50 of individual entries

{"compound": "CCCC[S+]([O-])c1sc2nc(-c3nccs3)cc(-c3cocn3)c2c1N (stereo not shown)", "unit": "nM", "comparisonOperator": "=", "IC50": 2.2}
{"compound": "COCCC[S+]([O-])c1sc2nc(-c3nccs3)nc(-c3ccccc3)c2c1N (stereo not shown)", "unit": "nM", "comparisonOperator": "=", "IC50": 3}
{"compound": "CCCC[S+]([O-])c1sc2nc(-c3nccs3)cc(-c3c(C)ncn3C)c2c1N (stereo not shown)", "unit": "nM", "comparisonOperator": "=", "IC50": 3.4}
{"compound": "Nc1c(S(=O)(=O)N2CCCCC2)sc2nc(-c3cccs3)cc(-c3ccccc3)c12", "unit": "nM", "comparisonOperator": ">", "IC50": 100}

* * *

subjectOfTest: recombinant 15-PGDH (Homo sapiens)
protocolDetails: IC50 for inhibiting enzymatic activity of recombinant 15-PGDH in an in vitro assay
Type: biochemical
assayConditions: Enzyme Inhibitor IC50 (nM) at 5 nM 15-PGDH, recombinant human 15-PGDH at 5 nM, in vitro
Lab note: cut-off is 3 nM. Strictly less in IC50 is true. Exactly 3 nM or more is false.

{"compound": "C=CCNC(=O)COc1ccc(-c2cc(-c3nccs3)nc3sc([S+]([O-])CCCC)c(N)c23)cc1 (centres unmarked)", "labelClass": "false"}
{"compound": "CCCC[S+]([O-])c1sc2nc(-c3nccs3)cc(-c3ccc(OCCOC(=O)CCC(=O)O)cc3)c2c1N (centres unmarked)", "labelClass": "false"}
{"compound": "CCCC[S+]([O-])c1sc2nc(-c3nccs3)cc(-c3nc(C)cs3)c2c1N (centres unmarked)", "labelClass": "true"}
{"compound": "CCCC[S+]([O-])c1sc2nc(-c3nccs3)cc(-c3ccc(COC(=O)NCCCl)cc3)c2c1N (centres unmarked)", "labelClass": "false"}
{"compound": "CCCC[S+]([O-])c1sc2nc(-c3cccs3)cc(-c3ccccc3)c2c1NC(C)=O (centres unmarked)", "labelClass": "false"}
{"compound": "CCCC[S+]([O-])c1sc2nc(-c3nccs3)cc(-c3nc(C)c(C)n3C)c2c1N (centres unmarked)", "labelClass": "true"}
{"compound": "CCCC[S+]([O-])c1sc2nc(-c3nccs3)cc(-c3cnc(CC)n3C)c2c1N (centres unmarked)", "labelClass": "true"}
{"compound": "CCCC[S+]([O-])c1sc2nc(-c3nccs3)cc(-c3ccc(CNC(=O)COC)cc3)c2c1N (centres unmarked)", "labelClass": "true"}

From: patent US20180118756A1
